Data provenance: the supplement of paper PMC10307832

System: HCC-827
Test summary: relative viability (nuclei count vs DMSO), 5 days (fraction); higher = more cells survive
Run conditions: first compound 0.1581 µM

{"Compound": "CC1(C)CCC(c2ccc(Cl)cc2)=C(CN2CCN(c3ccc(C(=O)NS(=O)(=O)c4ccc(N[C@H](CCN5CCOCC5)CSc5ccccc5)c(S(=O)(=O)C(F)(F)F)c4)cc3)CC2)C1 [Navitoclax] + CS(=O)(=O)N1CCN(Cc2cc3nc(-c4cccc5[nH]ncc45)nc(N4CCOCC4)c3s2)CC1 [Pictilisib] (partner 1 µM)", "relative viability": 0.78}
{"Compound": "CC1(C)CCC(c2ccc(Cl)cc2)=C(CN2CCN(c3ccc(C(=O)NS(=O)(=O)c4ccc(N[C@H](CCN5CCOCC5)CSc5ccccc5)c(S(=O)(=O)C(F)(F)F)c4)cc3)CC2)C1 [Navitoclax] + Cc1nc(Nc2ncc(C(=O)Nc3c(C)cccc3Cl)s2)cc(N2CCN(CCO)CC2)n1 [Dasatinib] (partner 0.075 µM)", "relative viability": 0.271}
{"Compound": "CC1(C)CCC(c2ccc(Cl)cc2)=C(CN2CCN(c3ccc(C(=O)NS(=O)(=O)c4ccc(N[C@H](CCN5CCOCC5)CSc5ccccc5)c(S(=O)(=O)C(F)(F)F)c4)cc3)CC2)C1 [Navitoclax] + NC(=O)Nc1cc(-c2cccc(F)c2)sc1C(=O)N[C@H]1CCCNC1 [AZD7762] (partner 0.2 µM)", "relative viability": 0.199}
{"Compound": "CC1(C)CCC(c2ccc(Cl)cc2)=C(CN2CCN(c3ccc(C(=O)NS(=O)(=O)c4ccc(N[C@H](CCN5CCOCC5)CSc5ccccc5)c(S(=O)(=O)C(F)(F)F)c4)cc3)CC2)C1 [Navitoclax] + CC(=O)Nc1cccc(-n2c(=O)n(C3CC3)c(=O)c3c(Nc4ccc(I)cc4F)n(C)c(=O)c(C)c32)c1 [Trametinib] (partner 0.02 µM)", "relative viability": 0.514}

---

Measured relative viability, listed per entry for reference.
System: NCI-H2170
Test summary: relative viability (nuclei count vs DMSO), 5 days (fraction); higher = more cells survive
Run conditions: first compound 0.01581 µM
Readout type: relative viability

{"Compound": "CC1(C)CCC(c2ccc(Cl)cc2)=C(CN2CCN(c3ccc(C(=O)NS(=O)(=O)c4ccc(N[C@H](CCN5CCOCC5)CSc5ccccc5)c(S(=O)(=O)C(F)(F)F)c4)cc3)CC2)C1 [Navitoclax] + COc1cc2c(Oc3ccc(NC(=O)C4(C(=O)Nc5ccc(F)cc5)CC4)cc3F)ccnc2cc1OCCCN1CCOCC1 [Foretinib] (partner 0.25 µM)", "Readout type": "relative viability", "Reported": 1.02}
{"Compound": "CC1(C)CCC(c2ccc(Cl)cc2)=C(CN2CCN(c3ccc(C(=O)NS(=O)(=O)c4ccc(N[C@H](CCN5CCOCC5)CSc5ccccc5)c(S(=O)(=O)C(F)(F)F)c4)cc3)CC2)C1 [Navitoclax] + O=C(CCCCCCC(=O)Nc1ccccc1)NO [Vorinostat] (partner 1 µM)", "Readout type": "relative viability", "Reported": 0.926}
{"Compound": "CC1(C)CCC(c2ccc(Cl)cc2)=C(CN2CCN(c3ccc(C(=O)NS(=O)(=O)c4ccc(N[C@H](CCN5CCOCC5)CSc5ccccc5)c(S(=O)(=O)C(F)(F)F)c4)cc3)CC2)C1 [Navitoclax] + C[C@@H](Oc1cc(-c2cnn(C3CCNCC3)c2)cnc1N)c1c(Cl)ccc(F)c1Cl [Crizotinib] (partner 1 µM)", "Readout type": "relative viability", "Reported": 1.28}
{"Compound": "CC1(C)CCC(c2ccc(Cl)cc2)=C(CN2CCN(c3ccc(C(=O)NS(=O)(=O)c4ccc(N[C@H](CCN5CCOCC5)CSc5ccccc5)c(S(=O)(=O)C(F)(F)F)c4)cc3)CC2)C1 [Navitoclax] + CS(=O)(=O)N1CCN(Cc2cc3nc(-c4cccc5[nH]ncc45)nc(N4CCOCC4)c3s2)CC1 [Pictilisib] (partner 1 µM)", "Readout type": "relative viability", "Reported": 0.327}
{"Compound": "CC1(C)CCC(c2ccc(Cl)cc2)=C(CN2CCN(c3ccc(C(=O)NS(=O)(=O)c4ccc(N[C@H](CCN5CCOCC5)CSc5ccccc5)c(S(=O)(=O)C(F)(F)F)c4)cc3)CC2)C1 [Navitoclax] + O=C(c1cc(Cc2n[nH]c(=O)c3ccccc23)ccc1F)N1CCN(C(=O)C2CC2)CC1 [Olaparib] (partner 8 µM)", "Readout type": "relative viability", "Reported": 0.62}
{"Compound": "CC1(C)CCC(c2ccc(Cl)cc2)=C(CN2CCN(c3ccc(C(=O)NS(=O)(=O)c4ccc(N[C@H](CCN5CCOCC5)CSc5ccccc5)c(S(=O)(=O)C(F)(F)F)c4)cc3)CC2)C1 [Navitoclax] + CS(=O)(=O)CCNCc1ccc(-c2ccc3ncnc(Nc4ccc(OCc5cccc(F)c5)c(Cl)c4)c3c2)o1 [Lapatinib] (partner 2 µM)", "Readout type": "relative viability", "Reported": 0.283}
{"Compound": "CC1(C)CCC(c2ccc(Cl)cc2)=C(CN2CCN(c3ccc(C(=O)NS(=O)(=O)c4ccc(N[C@H](CCN5CCOCC5)CSc5ccccc5)c(S(=O)(=O)C(F)(F)F)c4)cc3)CC2)C1 [Navitoclax] + Nc1ncn([C@H]2C[C@H](O)[C@@H](CO)O2)c(=O)n1 [Decitabine] (partner 2 µM)", "Readout type": "relative viability", "Reported": 0.484}
{"Compound": "CC1(C)CCC(c2ccc(Cl)cc2)=C(CN2CCN(c3ccc(C(=O)NS(=O)(=O)c4ccc(N[C@H](CCN5CCOCC5)CSc5ccccc5)c(S(=O)(=O)C(F)(F)F)c4)cc3)CC2)C1 [Navitoclax] + Cc1nc(NC(=O)N2CCC[C@H]2C(N)=O)sc1-c1ccnc(C(C)(C)C(F)(F)F)c1 [Alpelisib] (partner 2 µM)", "Readout type": "relative viability", "Reported": 0.872}

---

Tested on: NCI-H596
Test summary: relative viability (nuclei count vs DMSO), 5 days (fraction); higher = more cells survive
Run conditions: first compound 0.01 µM
Lab note - cut at 0.5 for relative viability: y if strictly below, n if not.

{"Compound": "NC(=O)Nc1cc(-c2cccc(F)c2)sc1C(=O)N[C@H]1CCCNC1 [AZD7762] + O=C(CCCCCCC(=O)Nc1ccccc1)NO [Vorinostat] (partner 1 µM)", "Assay system": "NCI-H596", "Assigned class": "n"}
{"Compound": "NC(=O)Nc1cc(-c2cccc(F)c2)sc1C(=O)N[C@H]1CCCNC1 [AZD7762] + Cc1cc(Nc2cc(N3CCN(C)CC3)nc(Sc3ccc(NC(=O)C4CC4)cc3)n2)n[nH]1 [Tozasertib] (partner 0.1 µM)", "Assay system": "NCI-H596", "Assigned class": "n"}
{"Compound": "NC(=O)Nc1cc(-c2cccc(F)c2)sc1C(=O)N[C@H]1CCCNC1 [AZD7762] + CS(=O)(=O)N1CCN(Cc2cc3nc(-c4cccc5[nH]ncc45)nc(N4CCOCC4)c3s2)CC1 [Pictilisib] (partner 1 µM)", "Assay system": "NCI-H596", "Assigned class": "y"}
{"Compound": "NC(=O)Nc1cc(-c2cccc(F)c2)sc1C(=O)N[C@H]1CCCNC1 [AZD7762] + Nc1nc2[nH]cc(CCc3ccc(C(=O)N[C@@H](CCC(=O)O)C(=O)O)cc3)c2c(=O)[nH]1 [Pemetrexed] (partner 0.2 µM)", "Assay system": "NCI-H596", "Assigned class": "y"}
{"Compound": "NC(=O)Nc1cc(-c2cccc(F)c2)sc1C(=O)N[C@H]1CCCNC1 [AZD7762] + CS(=O)(=O)CCNCc1ccc(-c2ccc3ncnc(Nc4ccc(OCc5cccc(F)c5)c(Cl)c4)c3c2)o1 [Lapatinib] (partner 2 µM)", "Assay system": "NCI-H596", "Assigned class": "n"}

---

Test system: NCI-H1915
Test summary: relative viability (nuclei count vs DMSO), 5 days (fraction); higher = more cells survive
Run conditions: first compound 0.05 µM
Each entry below carries its recorded relative viability.

{"Compound": "CC1(C)CCC(c2ccc(Cl)cc2)=C(CN2CCN(c3ccc(C(=O)NS(=O)(=O)c4ccc(N[C@H](CCN5CCOCC5)CSc5ccccc5)c(S(=O)(=O)C(F)(F)F)c4)cc3)CC2)C1 [Navitoclax] + C[C@]1(O)C[C@@H](c2nc(-c3ccc4ccc(-c5ccccc5)nc4c3)c3c(N)nccn32)C1 [Linsitinib] (partner 1 µM)", "Assay system": "NCI-H1915", "relative viability": 1.07}
{"Compound": "CC1(C)CCC(c2ccc(Cl)cc2)=C(CN2CCN(c3ccc(C(=O)NS(=O)(=O)c4ccc(N[C@H](CCN5CCOCC5)CSc5ccccc5)c(S(=O)(=O)C(F)(F)F)c4)cc3)CC2)C1 [Navitoclax] + CS(=O)(=O)CCNCc1ccc(-c2ccc3ncnc(Nc4ccc(OCc5cccc(F)c5)c(Cl)c4)c3c2)o1 [Lapatinib] (partner 2 µM)", "Assay system": "NCI-H1915", "relative viability": 0.819}
{"Compound": "CC1(C)CCC(c2ccc(Cl)cc2)=C(CN2CCN(c3ccc(C(=O)NS(=O)(=O)c4ccc(N[C@H](CCN5CCOCC5)CSc5ccccc5)c(S(=O)(=O)C(F)(F)F)c4)cc3)CC2)C1 [Navitoclax] + CC(C)C[C@H](NC(=O)[C@H](Cc1ccccc1)NC(=O)c1cnccn1)B(O)O [Bortezomib] (partner 0.002 µM)", "Assay system": "NCI-H1915", "relative viability": 0.82}
{"Compound": "CC1(C)CCC(c2ccc(Cl)cc2)=C(CN2CCN(c3ccc(C(=O)NS(=O)(=O)c4ccc(N[C@H](CCN5CCOCC5)CSc5ccccc5)c(S(=O)(=O)C(F)(F)F)c4)cc3)CC2)C1 [Navitoclax] + COc1cccc2cc(-c3nc([C@H]4CC[C@H](C(=O)O)CC4)n4ncnc(N)c34)[nH]c12 [OSI-027] (partner 0.5 µM)", "Assay system": "NCI-H1915", "relative viability": 0.627}
{"Compound": "CC1(C)CCC(c2ccc(Cl)cc2)=C(CN2CCN(c3ccc(C(=O)NS(=O)(=O)c4ccc(N[C@H](CCN5CCOCC5)CSc5ccccc5)c(S(=O)(=O)C(F)(F)F)c4)cc3)CC2)C1 [Navitoclax] + Nc1ncn([C@H]2C[C@H](O)[C@@H](CO)O2)c(=O)n1 [Decitabine] (partner 2 µM)", "Assay system": "NCI-H1915", "relative viability": 0.274}
{"Compound": "CC1(C)CCC(c2ccc(Cl)cc2)=C(CN2CCN(c3ccc(C(=O)NS(=O)(=O)c4ccc(N[C@H](CCN5CCOCC5)CSc5ccccc5)c(S(=O)(=O)C(F)(F)F)c4)cc3)CC2)C1 [Navitoclax] + C[C@@H](Oc1cc(-c2cnn(C3CCNCC3)c2)cnc1N)c1c(Cl)ccc(F)c1Cl [Crizotinib] (partner 1 µM)", "Assay system": "NCI-H1915", "relative viability": 0.877}
